- System: NDM-1 E. coli XJ141015
- TEST_SUMMARY: Antibiotic susceptibility (MIC), automated identification system
- Format: cell-based
- RUN_CONDITIONS: Escherichia coli; Supplementary Table 1
Listing of entries alongside the reported MIC.

These solved cases illustrate the format of a correct answer.
CC1(C)S[C@@H]2[C@H](NC(=O)[C@H](N)c3ccccc3)C(=O)N2[C@H]1C(=O)O :: > 16 µg/mL
CO/N=C(\C(=O)N[C@@H]1C(=O)N2C(C(=O)O)=C(COC(C)=O)CS[C@H]12)c1csc(N)n1 :: > 32 µg/mL
COc1c(N2C[C@@H]3CCCN[C@@H]3C2)c(F)cc2c(=O)c(C(=O)O)cn(C3CC3)c12 :: > 4 µg/mL
CNC(C)C1CCC(N)C(OC2C(N)CC(N)C(OC3OCC(C)(O)C(NC)C3O)C2O)O1 (stereo not shown) :: ≤ 2 µg/mL
C[C@H]1[C@H](NC(=O)/C(=N\OC(C)(C)C(=O)O)c2csc(N)n2)C(=O)N1S(=O)(=O)O :: > 16 µg/mL
C[C@@H](O)[C@H]1C(=O)N2C(C(=O)O)=C(SCCN=CN)C[C@H]12 :: > 8 µg/mL

The record that follows has no MIC shown yet.
// MIC value for C[C@@H](O)[C@H]1C(=O)N2C(C(=O)O)=C(S[C@@H]3CN[C@H](C(=O)N(C)C)C3)[C@H](C)[C@H]12 : > 8 µg/mL

* * *

- Test system: E. coli ATCC25922
- TEST_SUMMARY: Antibiotic susceptibility (MIC), automated identification system
- Assay type: cell-based
- RUN_CONDITIONS: Supplementary Table 1
- Source text: Clinical isolate strains were identified and screened by the Phoenix 100 automated bacterial identification system to rapidly detect antimicrobial resistance. Total DNA was extracted by the TIANamp Bacteria DNA Kit according to the manufacturer’s protocol. The presence of blaNDM-1 was confirmed using a diagnostic kit for NDM-1 (Puruikang Bio Inc., Shenzhen, China) based on fluorescent quantitative polymerase chain reaction assay. […]
QUANTITY: susceptibility class (MIC)

CO/N=C(\C(=O)N[C@@H]1C(=O)N2C(C(=O)[O-])=C(C[N+]3(C)CCCC3)CS[C@H]12)c1csc(N)n1 [Cefepime] :: S
NCC[C@H](O)C(=O)N[C@@H]1C[C@H](N)[C@@H](O[C@H]2O[C@H](CN)[C@@H](O)[C@H](O)[C@H]2O)[C@H](O)[C@H]1O[C@H]1O[C@H](CO)[C@@H](O)[C@H](N)[C@H]1O :: S
C[C@H]1[C@H](NC(=O)/C(=N\OC(C)(C)C(=O)O)c2csc(N)n2)C(=O)N1S(=O)(=O)O :: S
